# target-under-test: T1, human CD19 (human, UniProt P15391 20-556)
# T1 construct: also called B-cell surface antigen B4; B-cell antigen CD19
# T1 sequence: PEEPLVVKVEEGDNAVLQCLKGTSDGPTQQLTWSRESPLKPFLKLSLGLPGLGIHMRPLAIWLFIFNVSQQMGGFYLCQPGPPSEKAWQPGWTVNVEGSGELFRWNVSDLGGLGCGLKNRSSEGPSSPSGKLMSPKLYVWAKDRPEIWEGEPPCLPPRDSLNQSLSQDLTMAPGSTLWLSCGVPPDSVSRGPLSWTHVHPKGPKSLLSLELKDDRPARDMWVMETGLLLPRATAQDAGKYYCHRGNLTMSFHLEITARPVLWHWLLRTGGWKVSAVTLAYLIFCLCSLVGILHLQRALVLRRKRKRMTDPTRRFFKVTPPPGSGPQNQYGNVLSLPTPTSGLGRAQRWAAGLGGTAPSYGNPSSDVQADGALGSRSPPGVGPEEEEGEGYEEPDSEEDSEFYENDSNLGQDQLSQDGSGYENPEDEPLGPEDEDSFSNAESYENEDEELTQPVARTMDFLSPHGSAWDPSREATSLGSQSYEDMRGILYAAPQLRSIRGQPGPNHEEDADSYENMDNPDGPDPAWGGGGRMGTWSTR
# experiment-summary: binding affinity relative to the parent H1L1 mAb (Example 5); assay and format not named on the sheet
# if value of Fold change binding reaches 6 fold, tag Fulfilled; if it stays below, tag Not fulfilled

binder="H1.52 / L1.160 (antibody, V domains shown, vs H1L1 (Kabat): VH S100cT; VL L27cQ/S27eV/G29A/A55N/F96I; also called 4G7 H1.52_L1.160) VH: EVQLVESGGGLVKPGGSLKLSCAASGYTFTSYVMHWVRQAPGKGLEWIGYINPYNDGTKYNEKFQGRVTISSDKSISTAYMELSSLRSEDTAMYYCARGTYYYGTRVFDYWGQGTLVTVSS VL: DIVMTQSPATLSLSPGERATLSCRSSKSLQNVNANTYLYWFQQKPGQSPQLLIYRMSNLNSGVPDRFSGSGSGTEFTLTISSLEPEDFAVYYCMQHLEYPITFGAGTKLEIK" group="Not fulfilled"
binder="H1.199 / L1.148 (antibody, V domains shown, vs H1L1 (Kabat): VH T57P/K58E/S100cT; VL L27cQ/A55N/F96N; also called 4G7 H1.199_L1.148) VH: EVQLVESGGGLVKPGGSLKLSCAASGYTFTSYVMHWVRQAPGKGLEWIGYINPYNDGPEYNEKFQGRVTISSDKSISTAYMELSSLRSEDTAMYYCARGTYYYGTRVFDYWGQGTLVTVSS VL: DIVMTQSPATLSLSPGERATLSCRSSKSLQNSNGNTYLYWFQQKPGQSPQLLIYRMSNLNSGVPDRFSGSGSGTEFTLTISSLEPEDFAVYYCMQHLEYPNTFGAGTKLEIK" group="Not fulfilled"
binder="H1.52 / L1.143 (antibody, V domains shown, vs H1L1 (Kabat): VH S100cT; VL L27cQ/A55N; also called 4G7 H1.52_L1.143) VH: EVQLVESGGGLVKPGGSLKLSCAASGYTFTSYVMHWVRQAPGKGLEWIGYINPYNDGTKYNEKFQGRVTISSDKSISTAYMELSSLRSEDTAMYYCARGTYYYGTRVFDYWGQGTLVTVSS VL: DIVMTQSPATLSLSPGERATLSCRSSKSLQNSNGNTYLYWFQQKPGQSPQLLIYRMSNLNSGVPDRFSGSGSGTEFTLTISSLEPEDFAVYYCMQHLEYPFTFGAGTKLEIK" group="Not fulfilled"
binder="H1.52 / L1.149 (antibody, V domains shown, vs H1L1 (Kabat): VH S100cT; VL L27cQ/A55N/F96I; also called 4G7 H1.52_L1.149) VH: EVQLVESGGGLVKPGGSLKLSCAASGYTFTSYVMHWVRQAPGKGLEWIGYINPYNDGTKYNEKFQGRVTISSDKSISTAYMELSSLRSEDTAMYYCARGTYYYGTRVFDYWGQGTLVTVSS VL: DIVMTQSPATLSLSPGERATLSCRSSKSLQNSNGNTYLYWFQQKPGQSPQLLIYRMSNLNSGVPDRFSGSGSGTEFTLTISSLEPEDFAVYYCMQHLEYPITFGAGTKLEIK" group=Fulfilled
